The entries below come with measured GI50 values attached.
system: SNB-75 CNS; assay: NCI tumour cell line growth inhibition, 48 h
Property: GI50

• CC1=CC(=NC(=O)CBr)C=C/C1=N\S(=O)(=O)c1ccccc1 = 13.5 µM
• Cn1cc(-c2nc(-c3c[nH]c4ncccc34)cs2)c2cc(F)ccc21 = 2.78 µM
• COc1ccc(N(CC(=O)NCCC[Te]c2ccccc2)C(=O)c2ccccc2)cc1 = 2.58 µM
• O=C1NN(c2ccc(C(=O)O)cc2)C(=O)/C1=C\c1ccc([N+](=O)[O-])o1 = > 100 µM
• COc1cc2c3c(n(CCCCOC(=O)C(F)(F)F)c(=O)c2cc1OC)-c1cc2c(cc1C3=O)OCO2 = > 86.8 µM
• COc1cc(C(=O)c2ccc3c(c2)OCO3)cc(OC)c1OC = 1.39 µM
• COc1cc2nc3sc(C(=O)Nc4ccc(C(=O)OC(C)C)cc4)c(C(=O)Nc4ccc(Cl)cc4C)n3c(=O)c2cc1OC = 10.2 µM
• COc1ccccc1OCC(=O)Nc1sc2c(c1C(N)=O)CCC2 = > 100 µM
• CCN(CC)CCCC(C)Nc1cnc(C(=O)Nc2ccc(Cl)c3cccnc23)cn1 (stereo not given) = 3.18 µM
• Cn1cncc1[C@@](N)(c1ccc(Cl)cc1)c1ccc2c(c1)c(-c1cccc(Cl)c1)cc(=O)n2C = 4.68 µM
